Measured Emax of individual entries
# assayed-target: human m4 receptors (Homo sapiens, UniProt P08173)
# Construct: expressed in transfected cells; host or cells: CHO K1
# Sequence (P08173 whole entry): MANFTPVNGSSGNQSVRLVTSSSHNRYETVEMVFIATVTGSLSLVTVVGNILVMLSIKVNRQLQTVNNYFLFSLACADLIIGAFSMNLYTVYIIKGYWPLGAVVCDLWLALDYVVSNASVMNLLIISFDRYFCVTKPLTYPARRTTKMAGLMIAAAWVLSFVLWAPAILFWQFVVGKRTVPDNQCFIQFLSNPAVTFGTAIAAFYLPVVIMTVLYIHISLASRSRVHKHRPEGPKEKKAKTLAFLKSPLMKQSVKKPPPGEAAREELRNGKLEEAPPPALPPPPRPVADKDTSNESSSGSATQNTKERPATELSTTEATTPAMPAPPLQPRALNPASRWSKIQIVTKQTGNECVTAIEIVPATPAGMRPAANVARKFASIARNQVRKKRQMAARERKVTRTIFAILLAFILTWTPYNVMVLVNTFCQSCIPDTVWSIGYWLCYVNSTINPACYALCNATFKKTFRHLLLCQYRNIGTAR
# test-name: M4 assay: cyclic AMP accumulation/production in pertussis toxin-treated CHO m4 cells (% maximum stimulation compared to oxotremorine-M)
# Type: cell-based
# experimental-conditions: read-out: % Maximum Stimulation Compared to Oxotremorine-M
# Procedure: II. M4 muscarinic receptor […] assay: Cyclic AMP Accumulation in Pertussis Toxin-Treated CHO m4 Cells. CHO K1 cells transfected with human m4 receptors were grown to near confluency in T-150 flasks using Dulbecco's Modified Eagle Medium (DMEM) containing 10% fetal bovine serum. Cells were detached with 0.05% trypsin, 0.53 mM EDTA, and were suspended in medium containing 100 ng/ml pertussis toxin. Cells were plated at 30,000 cells per well into 96 well plates. […]

# example entries with known answers
N#Cc1cccc(C(=O)N[C@H]2c3cc(N=CN4CCCC4)ccc3C[C@@H]2O)c1 (relative stereo) : < 20%
CN(C)C=Nc1ccc2c(c1)[C@@H](NC(=O)c1ccccc1)[C@H](O)C2 (relative stereo) : 5%
O=C(N[C@@H]1c2cc(N=CN3CCCCC3)ccc2C[C@H]1O)c1cc(F)cc(F)c1 (relative stereo) : 73%

Next compound, Emax to be filled in.
Lab request: please report Emax under test system human m4 receptors (Homo sapiens, UniProt P08173) for O=C(N[C@H]1c2cc(N=CN3CCCC3)ccc2C[C@@H]1O)c1ccccc1C(F)(F)F (relative stereo) 65%
